Data credit: paper PMC9832505

Residues, ends and D or L forms follow the SMILES beside them.
ENDPOINT NAME: nanotape mean thickness in hydrogel (nm)

| MOLECULE | UNIT ABBREVIATION | NUMERIC VALUE |
| --- | --- | --- |
| CCCCCCCCCCCCCC(=O)NCC(=O)NCC(=O)NCC(=O)N[C@@H](CCCNC(=N)N)C(=O)NCC(=O)N[C@@H](CC(=O)O)C(=O)N[C@@H](CO)C(=O)O [mG, C14-GGGRGDS] (HELM PEPTIDE1{[CCCCCCCCCCCCCC(=O)[*:2]].G.G.G.R.G.D.S}$$$$V2.0) | nm | 13.6 |

====

Residues, ends and D or L forms follow the SMILES beside them.
ENDPOINT NAME: fiber mean diameter (nm)

| COMPOUND | ENDPOINT NAME | NUMERIC VALUE |
| --- | --- | --- |
| CCCCCCCCCCCCCCCC(=O)N[C@@H](Cc1c[nH]c2ccccc12)C(=O)NCC(=O)NCC(=O)N[C@@H](CCCNC(=N)N)C(=O)NCC(=O)N[C@@H](CC(=O)O)C(=O)N[C@@H](CO)C(=O)O [pW, C16-WGGRGDS] (HELM PEPTIDE1{[CCCCCCCCCCCCCCCC(=O)[*:2]].W.G.G.R.G.D.S}$$$$V2.0) | fiber mean diameter | 4 |

====

Residues, ends and D or L forms follow the SMILES beside them.
ENDPOINT NAME: nanotube radius (Å)

| COMPOUND | ENDPOINT NAME | NUMERIC VALUE |
| --- | --- | --- |
| CCCCCCCCCCCCCC(=O)N[C@@H](Cc1c[nH]c2ccccc12)C(=O)NCC(=O)NCC(=O)N[C@@H](CCCNC(=N)N)C(=O)NCC(=O)N[C@@H](CC(=O)O)C(=O)N[C@@H](CO)C(=O)O [mW, C14-WGGRGDS] (HELM PEPTIDE1{[CCCCCCCCCCCCCC(=O)[*:2]].W.G.G.R.G.D.S}$$$$V2.0) | nanotube radius | 750 |

====

Test system: C2C12 immortalized mouse myoblast
Assay: MTT cytotoxicity assay on C2C12 myoblasts
Format: cell-based
Conditions: 72 h, 0.1 wt %
Residues, ends and D or L forms follow the SMILES beside them.
ENDPOINT NAME: cell viability (%)

| COMPOUND | ENDPOINT NAME | NUMERIC VALUE |
| --- | --- | --- |
| CCCCCCCCCCCCCCCC(=O)N[C@@H](Cc1c[nH]c2ccccc12)C(=O)NCC(=O)NCC(=O)N[C@@H](CCCNC(=N)N)C(=O)NCC(=O)N[C@@H](CC(=O)O)C(=O)N[C@@H](CO)C(=O)O [pW, C16-WGGRGDS] (HELM PEPTIDE1{[CCCCCCCCCCCCCCCC(=O)[*:2]].W.G.G.R.G.D.S}$$$$V2.0) | cell viability | 73.3 |
| CCCCCCCCCCCCCC(=O)N[C@@H](Cc1c[nH]c2ccccc12)C(=O)NCC(=O)NCC(=O)N[C@@H](CCCNC(=N)N)C(=O)NCC(=O)N[C@@H](CC(=O)O)C(=O)N[C@@H](CO)C(=O)O [mW, C14-WGGRGDS] (HELM PEPTIDE1{[CCCCCCCCCCCCCC(=O)[*:2]].W.G.G.R.G.D.S}$$$$V2.0) | cell viability | 72.3 |
| CCCCCCCCCCCCCC(=O)NCC(=O)NCC(=O)NCC(=O)N[C@@H](CCCNC(=N)N)C(=O)NCC(=O)N[C@@H](CC(=O)O)C(=O)N[C@@H](CO)C(=O)O [mG, C14-GGGRGDS] (HELM PEPTIDE1{[CCCCCCCCCCCCCC(=O)[*:2]].G.G.G.R.G.D.S}$$$$V2.0) | cell viability | 84.4 |
| CCCCCCCCCCCCCCCC(=O)NCC(=O)NCC(=O)NCC(=O)N[C@@H](CCCNC(=N)N)C(=O)NCC(=O)N[C@@H](CC(=O)O)C(=O)N[C@@H](CO)C(=O)O [pG, C16-GGGRGDS] (HELM PEPTIDE1{[CCCCCCCCCCCCCCCC(=O)[*:2]].G.G.G.R.G.D.S}$$$$V2.0) | cell viability | 86.0 |

====

Below, each of the compounds is paired with its reported cell viability value.
Tested on: L929 murine fibroblast
Assay: MTT cytotoxicity assay on L929 fibroblasts
Type: cell-based, mouse
Settings: 72 h, 0.1 wt %
Residues, ends and D or L forms follow the SMILES beside them.

| COMPOUND | cell viability / % |
| --- | --- |
| CCCCCCCCCCCCCCCC(=O)NCC(=O)NCC(=O)NCC(=O)N[C@@H](CCCNC(=N)N)C(=O)NCC(=O)N[C@@H](CC(=O)O)C(=O)N[C@@H](CO)C(=O)O [pG, C16-GGGRGDS] (HELM PEPTIDE1{[CCCCCCCCCCCCCCCC(=O)[*:2]].G.G.G.R.G.D.S}$$$$V2.0) | 31.8 |
| CCCCCCCCCCCCCC(=O)N[C@@H](Cc1c[nH]c2ccccc12)C(=O)NCC(=O)NCC(=O)N[C@@H](CCCNC(=N)N)C(=O)NCC(=O)N[C@@H](CC(=O)O)C(=O)N[C@@H](CO)C(=O)O [mW, C14-WGGRGDS] (HELM PEPTIDE1{[CCCCCCCCCCCCCC(=O)[*:2]].W.G.G.R.G.D.S}$$$$V2.0) | 28.1 |
| CCCCCCCCCCCCCCCC(=O)N[C@@H](Cc1c[nH]c2ccccc12)C(=O)NCC(=O)NCC(=O)N[C@@H](CCCNC(=N)N)C(=O)NCC(=O)N[C@@H](CC(=O)O)C(=O)N[C@@H](CO)C(=O)O [pW, C16-WGGRGDS] (HELM PEPTIDE1{[CCCCCCCCCCCCCCCC(=O)[*:2]].W.G.G.R.G.D.S}$$$$V2.0) | 36.3 |
| CCCCCCCCCCCCCC(=O)NCC(=O)NCC(=O)NCC(=O)N[C@@H](CCCNC(=N)N)C(=O)NCC(=O)N[C@@H](CC(=O)O)C(=O)N[C@@H](CO)C(=O)O [mG, C14-GGGRGDS] (HELM PEPTIDE1{[CCCCCCCCCCCCCC(=O)[*:2]].G.G.G.R.G.D.S}$$$$V2.0) | 30.7 |
